# Lookup of reported apparent KD of K4 kissing-loop reporter keyed by entry
# System: K4 kissing-loop RNA reporter;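 further: bound reporter read as fluorescence of individual clusters on recovered sequencing chips by microscopy, with normalized cluster intensities fitted with a binding model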
# protocol description: apparent KD of K4 kissing-loop reporter; higher = weaker reporter binding
# condition: Eterna round: R107; input ligand: FMN 200 uM
Reply with just the number (in nM).

See these solved cases before continuing.
GGUCCGGGCUCGGCCGCCACUCCCUCCUGCCGUAAGGUGGGAUACCGAGUGAUGUUCGGUUGGAGGAGGACCGGGAGCCCGGACC [#2 Exclusion - Tryptophan B Attempt #15 (HarryS)] ... 165
UUGCAUGCUAGGGAAACCUAGCAUGCAUGCCGAGGACCGGUACGGCCGCCACUCGAACGAGUGAUGUUCGUUGACCAAAAUAAAA ... 227

[in] Check the records and state apparent KD of K4 kissing-loop reporter for GGGACGCUAGCUCGAAUGUAGUGAUUUGAUACCAGCCUGUCACUUGGCCCUUGGCAGCAAAGCAGAGUGAUGUUCUGACCAACCU [theeternabot_sameState_KL_Theo_A_47]
[out] 189

* * *

apparent KD of MS2 coat protein values for the sequences below.
# Tested on: MS2 coat protein
# protocol description: apparent KD of MS2 coat protein; designed switch direction (-1 OFF switch, 1 ON switch): -1; higher = weaker reporter binding
# condition: Eterna round: R95; input ligand: FMN 200 uM
The reply should be a number in nM, with the unit left off.

Completed entries (count: 2):
GAAGAGACAGGAUAUACAUGAGGAUCACCCAUGUGAGUAUGUUAGAGGCGGAGGAGAUGUAGAAGGGUCAAAGA [JR_Exclu3_Sub017] (puzzle: Exclusion 3) ... 39.9
UUUUUCAGGCCAGAUCCUCACAUGAGGAUCACCCAUGUGCUCGUCUGUUUUCGCUCUGUCUUUUUUUUGGUGGUGCU [Level Boss var2-20] (puzzle: Sensor v3, turn-off variant 1) ... 177

Here is the next item to consider.
[in] Provide measured apparent KD of MS2 coat protein value, entry: AGUAUCUAUCAUGAGAGUGGUAGGUACAACAGGUGGGAAACAUGAGGAUCACCCAUGUCCUCAUUUGCUCGUCUUAU [Grok-var2-01] (puzzle: Sensor v3, turn-off variant 2)
[out] 550

* * *

# Test system: MS2 coat protein
# protocol description: apparent KD of MS2 coat protein; designed switch direction (-1 OFF switch, 1 ON switch): -1; higher = weaker reporter binding
# condition: input ligand: none
measured attribute: apparent KD of MS2 coat protein (µM)
All answers are understood in µM, so give the number only.

[in] Find the measured apparent KD of MS2 coat protein of GUGUUGUCAGGAUAUCUUACAUAACUAUCGUUGUUACCAUUGGAGAAGGGACAUGAGGAUCACCCAUGUUUUCG [tap-tap-tappy50] (Eterna round: R97, puzzle: Exclusion 4) and report it.
[out] 0.0246

[in] In one line, give reported apparent KD of MS2 coat protein of the entry AAGCAGUCAGGAUAUCGUUAAUUUAGUUGUUUGUAUUAGUUCGAGAAGGGACAUGAGGAUCACCCAUGUAUGAA [Ex4 #42] (Eterna round: R97, puzzle: Exclusion 4) .
[out] 0.0483

[in] Please supply the value of reported apparent KD of MS2 coat protein for the item UUUUUAUAUGAAGGAUAUACUUAACAUGAGGAUCACCCAUGUGGUGUUGUGAGUGAGUGAGUUUAGUAGAAGGUCAAGUAUUUU [JMF's solution 8] (Eterna round: R96, puzzle: Exclusion NG 2)
[out] 0.431
